- experimentalDetails: NCI Yeast Anticancer Drug Screen. Data for the rad50 strain (AID 155);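 also: 0% = growth of vehicle-only cultures of the same strain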
- conditionContext: S. cerevisiae rad50 strain growth inhibition; at 50.0 µM; stronger effect = higher value
This is part of a sample that, as a whole, favours compounds with a hit. Of some 79,000 tested, about 15% had one in any assay.
Hi there, I'd appreciate the recorded growth inhibition for every entry that follows.
Dear colleague, please return just the value in %, with no unit written.

So what does the record say about growth inhibition for CC(=O)C(=C(c1ccccc1)c1ccccc1)c1ccccc1 ? -51.4

So what does the record say about growth inhibition for N#CC1(c2nc3ccccc3o2)C(=O)C(=O)N(C2C3CC4CC(C3)CC2C4)C(=O)C1=O (configuration not stated) ? -8.65

So what does the record say about growth inhibition for O=C(O)c1ccc(OCCOc2ccccc2)c(Cl)c1 ? 31

So what does the record say about growth inhibition for CCCCCCO[Si](OCCCCCC)(OCCCCCC)OCCCCCC ? -35.1

So what does the record say about growth inhibition for C(=Nc1cnc2ccccc2c1)c1ccc2ccccc2n1 ? -5.3

So what does the record say about growth inhibition for COC(=O)/C=C/c1ccc(OP(=O)(O)O)c(OC)c1 ? -22.1

So what does the record say about growth inhibition for [N-]=[N+]=Nc1cc(-c2ccccc2)nc2cc3c(cc12)OCO3 ? -2.9

So what does the record say about growth inhibition for C=CCN1C(=O)NC(=O)C1c1ccsc1 (configuration not stated) ? -14.7

So what does the record say about growth inhibition for COc1ccc2c(c1)NC(C(C)C)=NS2(=O)=O ? 17.9

So what does the record say about growth inhibition for CC(CO)(CO)Nc1ncnc2ccccc12 ? -4.5

So what does the record say about growth inhibition for O=C(CC(C(=O)c1cccs1)c1ccsc1)c1cccs1 (configuration not stated) ? -23.8

So what does the record say about growth inhibition for O=C(c1ccccc1)c1c[nH]c(=O)[nH]c1=O ? -17.1

###

- experimentalDetails: NCI Yeast Anticancer Drug Screen. Data for the mlh1 rad18 strain (AID 175)
- conditionContext: S. cerevisiae mlh1 rad18 strain growth inhibition; at 50.0 µM; stronger effect = higher value
The panel holds about 79,000 compounds, 15% with a hit somewhere; the sample as a whole holds those more often. The source made the active and inactive calls. Rule as the data show it: active = growth inhibition above about 70%; inactive = the rest.
readoutKind: growth inhibition

So what does the record say about growth inhibition for CN(C)CCN=C1Nc2ccccc2C(=S)N2CSCC12 (stereo not given) ? 11.9% (inactive)

So what does the record say about growth inhibition for Oc1ccccc1CNCCNCc1ccccc1O ? -36.2% (inactive)

So what does the record say about growth inhibition for NC(=O)NC(Cc1ccccc1)(C(=O)O)c1ccccc1 (stereo not given) ? 20.4% (inactive)

So what does the record say about growth inhibition for CC[O-].CC[O-].O=C1c2ccccc2C(=O)c2c(O)ccc([O-])c21.O=C1c2ccccc2C(=O)c2c(O)ccc([O-])c21.[Ti+4] ? -14.8% (inactive)

So what does the record say about growth inhibition for CCCCCCC(C)Oc1ccccc1Cl (stereo not given) ? -20.6% (inactive)

So what does the record say about growth inhibition for COC(=O)[C@H](Cc1c[nH]c2ccccc12)NP(=O)(OCCC#N)OCC1OC(n2cc(C)c(=O)[nH]c2=O)CC1N=[N+]=[N-] (stereo not given in full) ? -65% (inactive)

So what does the record say about growth inhibition for CSc1nc2c(c(=O)n1C)N=C(c1ccccc1)[C@H](C(CC(=O)c1ccccc1)c1ccccc1)C(c1ccccc1)N2 (stereo not given in full) ? 11.8% (inactive)

So what does the record say about growth inhibition for COCC(=O)C(C(C)=O)C(c1ccc2c(c1)OCO2)C(C(C)=O)C(=O)COC (stereo not given) ? -2.6% (inactive)

So what does the record say about growth inhibition for O=C(Nc1cccc2ccccc12)c1ccccc1 ? 19.4% (inactive)

So what does the record say about growth inhibition for COc1ccc(-c2c(C(C)=O)c(-c3ccccc3)n(C3OC(COC(C)=O)C(OC(C)=O)C(OC(C)=O)C3OC(C)=O)c(=S)c2C#N)cc1 (stereo not given) ? -36.2% (inactive)

So what does the record say about growth inhibition for COc1ccc(C2c3cc4c(cc3OC(NNS(=O)(=O)c3ccc(C)cc3)C2C)OCO4)cc1 (stereo not given) ? 34.2% (inactive)

So what does the record say about growth inhibition for O=C(CCl)OCc1ccc(Cl)cc1 ? -9.45% (inactive)

So what does the record say about growth inhibition for O=C(CNC(=O)C(CO)NC(=O)OCc1ccccc1)OCc1ccccc1 (stereo not given) ? 4.35% (inactive)

So what does the record say about growth inhibition for CCSCC1C(=O)C23C(O)C1CCC2C12COC3(O)C(O)C1C(C)(C)CCC2O (stereo not given) ? 7.05% (inactive)

So what does the record say about growth inhibition for CCC(Cc1cnc2nc(N)nc(N)c2n1)c1ccc(C(=O)NC(CCC(=O)O)C(=O)O)cc1 (stereo not given) ? -14.5% (inactive)

So what does the record say about growth inhibition for CN(C)c1ccc(/C=C(\NC(=O)c2ccccc2)c2nn(C)c(=O)o2)cc1 ? -22.6% (inactive)

So what does the record say about growth inhibition for CCC(C)C(C)/C(C)=N/Nc1ccc([N+](=O)[O-])cc1[N+](=O)[O-] (stereo not given) ? -26.4% (inactive)

So what does the record say about growth inhibition for Cn1ccnc1SC(=O)C(Cl)(c1ccccc1)c1ccccc1 ? 5.45% (inactive)

So what does the record say about growth inhibition for CNc1nc(C)nc(NC)n1 ? -22.9% (inactive)

So what does the record say about growth inhibition for CC(=O)NNc1nc(C)c(C(/C=C/c2ccc(Cl)cc2)=N/NC(=S)NN)s1 ? 9.75% (inactive)

So what does the record say about growth inhibition for COc1ccc(C(N)C(=O)O)cc1 (stereo not given) ? -10.9% (inactive)

So what does the record say about growth inhibition for CN(C)CC1CCC/C(=C\c2ccccc2)C1=O (stereo not given) ? 16.7% (inactive)

So what does the record say about growth inhibition for CC(C)(OC(=O)Nc1ccccc1)c1ccc([N+](=O)[O-])cc1 ? -4.45% (inactive)

So what does the record say about growth inhibition for N#Cc1ccc(Sc2ccccc2)cc1C#N ? 0.6% (inactive)

So what does the record say about growth inhibition for CC12CC3(Nc4ccccc4C3(C)O)OC1(C)c1ccccc1N2 (stereo not given) ? 17.5% (inactive)

So what does the record say about growth inhibition for O=C(O)C1CC(Cl)C(Cl)CC1C(=O)O (stereo not given) ? -5.1% (inactive)

So what does the record say about growth inhibition for NNC(=O)CC(O)C(=O)NN (stereo not given) ? 4.75% (inactive)

So what does the record say about growth inhibition for CCOC(=O)C1(C(=O)OCC)C(C#N)(C#N)C1(C#N)C#N ? -11.3% (inactive)

So what does the record say about growth inhibition for Cc1ncc([N+](=O)[O-])n1CCNC(=O)CCC(=O)NCCCn1ccnc1[N+](=O)[O-] ? 14.9% (inactive)

So what does the record say about growth inhibition for N#Cc1c(O)c(C=O)c(=O)n2c1[nH]c1ccccc12 ? -0.05% (inactive)

So what does the record say about growth inhibition for Nc1nc(CCC(=O)Nc2cccc(C(F)(F)F)c2)cc(-c2ccc3ccccc3c2)n1 ? -31.6% (inactive)

So what does the record say about growth inhibition for Cc1c(C)n(COCCO)c2ncnc(N)c12 ? -39% (inactive)

So what does the record say about growth inhibition for C[N+]([O-])=C(c1ccccc1)c1ccccc1 ? -4.9% (inactive)

So what does the record say about growth inhibition for O=C(Nc1ncnc2c1ncn2C1CCC(CO)O1)c1ccccc1 (stereo not given) ? 16.9% (inactive)

So what does the record say about growth inhibition for COC(=O)c1cc(C(=O)O)c(=O)n2ccccc12 ? 41.5% (inactive)

So what does the record say about growth inhibition for O=[N+]([O-])c1ccc(-c2nnc(C34CC5CC(CC(C5)C3)C4)o2)cc1 ? -30.1% (inactive)

So what does the record say about growth inhibition for Cc1c([N+](=O)[O-])cc2c(c1[N+](=O)[O-])C(C)(C)C(C)CC2(C)C (stereo not given) ? -10.9% (inactive)

So what does the record say about growth inhibition for O=CC(=C\c1cccs1)/C(C=O)=C\c1cccs1 ? 88.5% (active)

So what does the record say about growth inhibition for CCOC(=O)c1c[nH]c2cc3c(cc2c1=O)CCS3 ? -7.35% (inactive)

So what does the record say about growth inhibition for COC(=O)c1ccccc1NC(=NC1CCCCCC1)NS(=O)(=O)c1ccc(C)cc1 ? -31.3% (inactive)

So what does the record say about growth inhibition for COc1ccc(C(=O)C[C@H]2CCC[C@@H](CC(=O)c3ccc(OC)cc3)N2C)cc1 ? 8.1% (inactive)

So what does the record say about growth inhibition for O=c1ccc2cc3ccoc3c(OCCOCCOCCOCCOc3c4occc4cc4ccc(=O)oc34)c2o1 ? 26.8% (inactive)

So what does the record say about growth inhibition for COC(=O)C(C(=O)c1ccccc1)C(C(=O)C(=O)Nc1ccc(OC)cc1OC)C(=O)C(=O)c1ccc(C)cc1 (stereo not given) ? 19.6% (inactive)

So what does the record say about growth inhibition for COC(=O)CC(=O)c1cccc([N+](=O)[O-])c1 ? 0.15% (inactive)

So what does the record say about growth inhibition for CC(C)CNC(=O)C(=O)NCC(C)C ? -2.4% (inactive)
